Assayed target: human PHD2 (Homo sapiens (Human), UniProt Q9GZT9)
Sequence (Q9GZT9 whole entry): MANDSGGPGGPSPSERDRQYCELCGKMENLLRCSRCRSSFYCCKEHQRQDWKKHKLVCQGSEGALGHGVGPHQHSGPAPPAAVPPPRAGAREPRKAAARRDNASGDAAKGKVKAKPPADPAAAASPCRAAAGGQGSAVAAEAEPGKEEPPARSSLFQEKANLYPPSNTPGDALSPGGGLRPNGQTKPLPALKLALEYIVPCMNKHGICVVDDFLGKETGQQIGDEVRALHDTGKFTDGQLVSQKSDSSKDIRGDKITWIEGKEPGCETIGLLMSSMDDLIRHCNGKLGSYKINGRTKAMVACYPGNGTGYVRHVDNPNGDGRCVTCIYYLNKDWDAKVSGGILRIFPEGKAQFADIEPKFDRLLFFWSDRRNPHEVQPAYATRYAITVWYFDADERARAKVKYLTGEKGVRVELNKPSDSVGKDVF
Test: Test 2: human PHD2 inhibitory activity, fluorescence polarization assay of HIF-1α peptide proline hydroxylation
Type: biochemical
Conditions: test compound's concentration 1 μM; Test 2, fluorescence polarization assay; read-out: Percent inhibition (% at 1 μM)
Protocol: (1) Expression and Preparation of Human PHD2 A registered sequence of human PHD2 (NM_022051) was introduced into pcDNA3.1/Hygro(+) vector (Invitrogen), and the sequence was verified. […] The activity of human PHD2 enzyme was measured with a substrate which is a 19-residue partial peptide based on the sequence of HIF-1α; specifically, the hydroxylation of a proline residue in the peptide was measured by FP (Fluorescence Polarization). […]
Experimental endpoint: inhibition at 1 µM (%)

Solved entries (count: 2):
Asked: For the compound shown here, O=C(O)CNC(=O)C1=C(O)CC2(CCNCC2)N(Cc2ccc(-c3ccccc3)cc2)C1=O , give the reported inhibition at 1 µM.
Given back: 83

Asked: Form field: reported inhibition at 1 µM of Cc1ncccc1COc1ccc(CN2CCC(O)=C(C(=O)NCC(=O)O)C2=O)cc1
Given back: 90

1 = CC1CN(Cc2cnc(-c3ccccc3)s2)C(=O)C(C(=O)NCC(=O)O)=C1O (stereo not shown)
2 = Cc1ccc(CN2CC3(CCC3)C(O)=C(C(=O)NCC(=O)O)C2=O)cc1
3 = CC1(C)CC(O)=C(C(=O)NCC(=O)O)C(=O)N1Cc1cnc(-c2ccccc2)[nH]1
4 = COc1ccc(CN2CCC(O)=C(C(=O)N(C)CC(=O)O)C2=O)cc1
Asked: Sort these compounds on inhibition at 1 µM so the largest reading comes first. To answer, write out the labels according to the requested order.
Given back: 1, 2, 3, 4

The reported numbers originate from patent US9422240B2.
